- test.summary: chemical genetic growth profiling, strain panel (AID 1159580);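 also: tested at 20 µM; growth read once vehicle control cultures reached saturation at 30 °C; 1 = growth at the plate median or of vehicle wells; lower values mean less growth of the strain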
- run.conditions: S. cerevisiae deletion strains, growth OD, locus YMR205C, strain PFK2, hits give low values
Among all 5,500 compounds or so, about 2,000 (36%) were called active. Inconclusive results (about 18%) are left out. The list shows a part of the results.
Below is a list of entries, each paired with its recorded normalized growth value.

| compound | normalized growth |
| --- | --- |
| COc1ccc(-c2cc(=O)c3c(O)cc(O)cc3o2)cc1 | 0.968 |
| CN(C)C(=O)C(CCN1CCC(O)(c2ccc(Cl)cc2)CC1)(c1ccccc1)c1ccccc1 | 0.969 |
| COc1cc(-c2cc(=O)c3c(O)c(OC)c(OC)c(OC)c3o2)cc(OC)c1OC | 1.02 |
| Cc1ccccc1N1C(=O)c2cc(S(N)(=O)=O)c(Cl)cc2NC1C (stereo unspecified) | 0.982 |
| CC(=O)Oc1ccccc1C(=O)Oc1ccccc1C(=O)O | 0.998 |
| O=C(Oc1cccc2cccnc12)c1ccccc1 | 0.973 |

###

- test.summary: chemical genetic growth profiling, strain panel (AID 1159580)
- run.conditions: S. cerevisiae deletion strains, growth OD, locus YDL132W, strain cdc53, hits give low values
In all, about 5,500 compounds went through this assay and about 2,000 (36%) were called active. Not shown: some 18% with an inconclusive outcome. This is one part of the list.
reported.metric: normalized growth

| compound.string | reported.metric | number |
| --- | --- | --- |
| N#Cc1ccc2[nH]cc(CCN(Cc3ccccc3)Cc3ccccc3)c2c1 | normalized growth | 0.985 |
| CN(C)/C=C1\CSc2ccc(Cl)cc2C1=O | normalized growth | 0.956 |
| CC1(C)C=Cc2cc(/C(N)=N\OC(=O)Nc3cccc(C(F)(F)F)c3)ccc2O1 | normalized growth | 0.977 |
| O=C(O/N=C1/CCCc2[nH]c3ccccc3c21)C1CCCCC1 | normalized growth | 0.97 |
| N/C(=N/OC(=O)c1ccc([N+](=O)[O-])cc1)c1c(Cl)cccc1Cl | normalized growth | 0.938 |
| CC(C)(C)NC(=S)N/N=C\c1cc(Br)c(O)c(Br)c1 | normalized growth | 0.955 |
| FC(F)(F)Sc1ccc(OCc2n[nH]c(=S)n2-c2ccccc2)cc1 | normalized growth | 0.993 |
| CO/N=C1/CC(C)(C)Cc2c(-c3ccn(C(=O)Nc4cccc(Cl)c4)n3)sc(SC)c21 | normalized growth | 0.967 |
| O=C1OC(c2ccccc2)=C/C1=C/c1ccccc1 | normalized growth | 0.96 |
| O=C1Nc2ccccc2/C1=C\c1cccc2ccccc12 | normalized growth | 0.965 |
| O=C(Nc1ccc(SC(F)(F)F)cc1)Nc1ccc(Oc2cccc(C(F)(F)F)c2)nc1 | normalized growth | 0.995 |
| O=c1cc(CSc2ccc(Cl)cc2)c2ccc(O)cc2o1 | normalized growth | 0.944 |
| N/C(=N/OC(=O)c1cnn(-c2ccc([N+](=O)[O-])cc2)c1C(F)(F)F)c1ccc(Cl)cc1 | normalized growth | 0.974 |
| O=C(Nc1cc2ccccc2s1)N1CCN(Cc2c(F)cccc2Cl)CC1 | normalized growth | 0.983 |
| O=C(NNc1cc(C(F)(F)F)cc(C(F)(F)F)c1)c1cnc2n(c1=O)CCS2 | normalized growth | 0.998 |
| O=C1Nc2ccccc2/C1=C\c1c[nH]c2ccccc12 | normalized growth | 0.628 |
| O=C(OCc1ccccc1Br)c1cc([N+](=O)[O-])cc([N+](=O)[O-])c1 | normalized growth | 0.961 |
| Cc1ccc(Sc2ncccc2NS(=O)(=O)c2ccc(Cl)cc2)cc1 | normalized growth | 0.932 |
| CN1/C(=C/C=C/c2ccc3ccccc3[n+]2C)C=Cc2ccccc21 | normalized growth | 0.653 |
| O=C1/C(=C/c2c[nH]c3ccccc23)CSc2ccccc21 | normalized growth | 0.99 |
| Cc1cc(Br)c(O)c(/C=N\NC(=S)NC(C)(C)C)c1 | normalized growth | 0.984 |
| FC(F)(F)Oc1ccc(OCc2n[nH]c(=S)n2-c2ccc(Cl)cc2)cc1 | normalized growth | 0.981 |

###

- test.summary: chemical genetic growth profiling, strain panel (AID 1159580)
- run.conditions: S. cerevisiae deletion strains, growth OD, locus YLR370C, strain arc18, hits give low values
Out of some 5,500 compounds screened, about 2,000 (36%) were called active. Roughly 18% stayed inconclusive and do not appear here. Some of the results follow.
reported.metric: normalized growth

| molecule | number |
| --- | --- |
| CC1Cc2ccccc2N1NC(=O)c1ccc(Cl)c(S(N)(=O)=O)c1 (centres undefined) | 1.01 |
| CC[C@@]1(O)C(=O)OCc2c1cc1n(c2=O)Cc2cc3cc(O)ccc3nc2-1 | 1.01 |
| Nc1ccc(S(=O)(=O)Nc2ncccn2)cc1 | 0.982 |
| C[N+]1(C)C[C@H](O)[C@H](C(=O)[O-])C1 | 1.02 |
| CCCc1nn(C)c2c(=O)[nH]c(-c3cc(S(=O)(=O)N4CCN(C)CC4)ccc3OCC)nc12 | 0.988 |
| CC1CCCC(C)N1NC(=O)c1ccc(Cl)c(S(N)(=O)=O)c1 (centres undefined) | 1.01 |
| COC(=O)CC1C(C)(C)C(OC(C)=O)[C@@H]2[C@@H](OC(C)=O)[C@]34O[C@@]2(O)[C@]1(C)C3CC[C@]1(C)C4=CC(=O)O[C@H]1c1ccoc1 (some centres undefined) | 1.03 |
| CC[C@@]1(O)C(=O)OCc2c1cc1n(c2=O)Cc2cc3ccccc3nc2-1 | 0.832 |
| CCCc1nc(C)c2c(=O)[nH]c(-c3cc(S(=O)(=O)N4CCN(CC)CC4)ccc3OCC)nn12 | 0.966 |

###

- test.summary: chemical genetic growth profiling, strain panel (AID 1159580);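 also: tested at 20 µM; growth read once vehicle control cultures reached saturation at 30 °C; 1 = growth at the plate median or of vehicle wells; lower values mean less growth of the strain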
- run.conditions: S. cerevisiae deletion strains, growth OD, locus YOR070C, strain gyp1, hits give low values
Among all 5,500 compounds or so, about 2,000 (36%) were called active. Inconclusive results (about 18%) are left out. The list shows a part of the results.
Below is a list of entries, each paired with its recorded normalized growth value.
reported.metric: normalized growth

| molecule | result |
| --- | --- |
| CC1(C)O[C@@H]2CC3C4C[C@H](F)C5=CC(=O)CC[C@]5(C)C4[C@@H](O)C[C@]3(C)[C@]2(C(=O)CO)O1 (stereo not given in full) | 1.01 (inactive) |
| CC1Cc2ccccc2N1NC(=O)c1ccc(Cl)c(S(N)(=O)=O)c1 (stereo not given) | 1 (inactive) |
| CC12CCC(=O)C=C1CCc1ccccc12 (stereo not given) | 0.992 (inactive) |
| O=c1c(O)cc([C@H]2Oc3cc(O)cc(O)c3C[C@H]2O)cc2c([C@H]3Oc4cc(O)cc(O)c4C[C@H]3O)cc(O)c(O)c12 | 1.01 (inactive) |
| O=C(O)C1=CC(=C(c2ccc(O)c(C(=O)O)c2)c2ccc(O)c(C(=O)O)c2)C=CC1=O | 0.995 (inactive) |
| COC(=O)C(N)CS (stereo not given) | 0.999 (inactive) |
| Cc1c(C(N)=O)cc([N+](=O)[O-])cc1[N+](=O)[O-] | 1.02 (inactive) |
| CC(C)(C)NCC(O)COc1cccc2c1CCCC2=O (stereo not given) | 0.992 (inactive) |
| COc1cccc2c1CCC1=CC(=O)CC[C@@]12C | 1 (inactive) |
| CC(=O)OCC(=O)[C@@]1(O)CCC2C3C[C@H](C)C4=CC(=O)C=CC4(C)C3[C@@H](O)CC21C (stereo not given in full) | 1.02 (inactive) |

###

- test.summary: chemical genetic growth profiling, strain panel (AID 1159580);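 also: tested at 20 µM; growth read once vehicle control cultures reached saturation at 30 °C; 1 = growth at the plate median or of vehicle wells; lower values mean less growth of the strain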
- run.conditions: S. cerevisiae deletion strains, growth OD, locus YDR137W, strain rgp1, hits give low values
The whole screen tested about 5,500 compounds, of which about 2,000 (36%) were called active. About 18% were inconclusive and are not listed. The list shows a part of the results.
Below is a list of entries, each paired with its recorded normalized growth value.
reported.metric: normalized growth

| compound | number |
| --- | --- |
| CCCCC(=O)O[C@]1(C(=O)CO)[C@@H](C)CC2C3CCC4=CC(=O)C=C[C@]4(C)[C@@]3(F)C(O)C[C@@]21C (some centres undefined) | 0.979 |
| CCC(=O)OCC(=O)C1(OC(=O)CC)C(C)CC2C3C(Cl)CC4=CC(=O)C=CC4(C)C3C(O)CC21C (centres undefined) | 1.03 |
| CCC(=O)OCC(=O)[C@@]1(OC(=O)CC)[C@@H](C)CC2C3CCC4=CC(=O)C=C[C@]4(C)C3(F)[C@@H](O)C[C@@]21C (some centres undefined) | 1.01 |
| COP(N)(=O)SC (centres undefined) | 1.01 |

###

Below is a list of entries, each paired with its recorded normalized growth value.
- test.summary: chemical genetic growth profiling, strain panel (AID 1159580);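 also: tested at 20 µM; growth read once vehicle control cultures reached saturation at 30 °C; 1 = growth at the plate median or of vehicle wells; lower values mean less growth of the strain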
- run.conditions: S. cerevisiae deletion strains, growth OD, locus YOR270C, strain vph1, hits give low values
Among all 5,500 compounds or so, about 2,000 (36%) were called active. Another 18% or so got no clear call; they are omitted. This is one part of the list.

| molecule | normalized growth |
| --- | --- |
| C[C@H]1O[C@@H](O[C@H]2[C@@H](O)C[C@H](O[C@H]3[C@@H](O)C[C@H](O[C@H]4CC[C@]5(C)C6C[C@@H](O)[C@]7(C)[C@@H](C8=CC(=O)OC8)CC[C@]7(O)C6CC[C@@H]5C4)O[C@@H]3C)O[C@@H]2C)C[C@H](O)[C@@H]1O (stereo partly drawn) | 0.92 |
| COC1C(O)C(O[C@H]2CC[C@]3(C=O)C4C(CC[C@]3(O)C2)[C@@]2(O)CC[C@H](C3=CC(=O)OC3)[C@@]2(C)C[C@H]4OC(C)=O)OC(C)C1OC(C)=O (stereo partly drawn) | 1.04 |
| C[C@@H]1CCC2[C@](C)(CO)[C@@H](O)CC[C@]2(C)[C@@]12CC[C@@](CO)(CCO)O2 (stereo partly drawn) | 0.971 |
| O=C(/C=C(\O)c1ccccc1)c1ccccc1O | 0.607 |
| C/C=C/CC(C)C(O)C1C(=O)NC(CC)C(=O)N(C)CC(=O)N(C)C(CC(C)C)C(=O)NC(C(C)C)C(=O)N(C)C(CC(C)C)C(=O)NC(C)C(=O)NC(C)C(=O)N(C)C(CC(C)C)C(=O)N(C)C(CC(C)C)C(=O)N(C)C(C(C)C)C(=O)N1C (stereo not drawn) | 0.895 |
| NCC(O)CC(=O)O (stereo not drawn) | 0.987 |
| C[C@H]1O[C@@H](O[C@H]2[C@@H](O)C[C@H](O[C@H]3[C@@H](O)C[C@H](O[C@H]4CC[C@]5(C)C6CC[C@]7(C)[C@@H](C8=CC(=O)OC8)CC[C@]7(O)C6CC[C@@H]5C4)O[C@@H]3C)O[C@@H]2C)C[C@H](O)[C@@H]1O (stereo partly drawn) | 0.89 |
| CC[C@@]1(O)C(=O)OCc2c1cc1n(c2=O)Cc2cc3cc(O)ccc3nc2-1 | 1.03 |
| COC(=O)N/N=C\c1c[n+]([O-])c2ccccc2[n+]1[O-] | 0.864 |
| CN[C@H]1CC[C@@H](c2ccc(Cl)c(Cl)c2)c2ccccc21 | 0.348 |
| CC(=O)OC1CC[C@@]2(C)C(CCC3C2CC[C@]2(C)C(C4=CC(=O)OC4)C(OC(C)=O)CC32O)C1 (stereo partly drawn) | 0.965 |
| CC1=C2C(O)C(=O)OC3CC4C(C)(C)C(=O)C=C[C@]4(C)C(CC1)[C@]23C (stereo partly drawn) | 1.05 |
| CC1(C)Oc2ccc3ccc(=O)oc3c2CC1O (stereo not drawn) | 1.02 |
| CNC[C@H](O)c1cccc(O)c1 | 1 |
| Oc1ccc2c3c1OC1[C@@H](O)CC[C@@]4(O)[C@@H](C2)N(CC2CCC2)CC[C@]314 (stereo partly drawn) | 0.997 |
| CC(=O)O[C@@H]1c2c(ccc3ccc(=O)oc23)OC(C)(C)[C@@H]1OC(=O)CC(C)C | 0.883 |
| C[C@H]1O[C@H](O[C@H]2[C@H](O)[C@@H](O)[C@@H](O[C@H]3[C@H](O)[C@@H](O)C(O)O[C@@H]3CO)O[C@@H]2CO)[C@H](O)[C@@H](O)[C@@H]1N[C@H]1C=C(CO)[C@@H](O)[C@H](O)[C@H]1O (stereo partly drawn) | 1 |
| O=C1CC2(CCCC2)CC(=O)N1CCCCN1CCN(c2ncccn2)CC1 | 1.03 |
| COc1ccc(-c2cc(=O)c3c(O)c(OC)c(OC)c(OC)c3o2)cc1OC | 0.962 |
| Cc1ccc(-c2nc3ccc(C)cn3c2CC(=O)N(C)C)cc1 | 1.07 |
| CC1(C)[C@@H]2CC[C@@]1(C)C(=O)C2 | 1.06 |
| COc1ccc(-c2cc(=O)c3c(O)cc(O)c(-c4cc(-c5cc(=O)c6c(O)cc(O)cc6o5)ccc4OC)c3o2)cc1 | 0.998 |
| CC1(C)O[C@@H]2CC3C4C[C@H](F)C5=CC(=O)CC[C@]5(C)C4[C@@H](O)C[C@]3(C)[C@]2(C(=O)CO)O1 (stereo partly drawn) | 1.03 |
| N#Cc1c(Cl)cccc1Cl | 1.01 |
| COc1cc(-c2cc(=O)c3c(O)c(OC)c(OC)c(OC)c3o2)cc(OC)c1OC | 0.99 |
| CCn1nc(C(=O)O)c(=O)c2cc3c(cc21)OCO3 | 1.02 |
| CC(=O)N1CCN(c2ccc(OCC3CO[C@](Cn4ccnc4)(c4ccc(Cl)cc4Cl)O3)cc2)CC1 (stereo partly drawn) | 0.112 |
| CCCCC(=O)O[C@]1(C(=O)CO)[C@@H](C)CC2C3CCC4=CC(=O)C=C[C@]4(C)[C@@]3(F)C(O)C[C@@]21C (stereo partly drawn) | 0.88 |
| C[C@]12CCC3C(CC[C@]4(O)C[C@@H](O)CC[C@]34C=O)[C@@]1(O)CCC2C1=CC(=O)OC1 (stereo partly drawn) | 0.997 |
| NC[C@@H]1O[C@H](O[C@@H]2[C@@H](CO)OC(O[C@@H]3[C@@H](O)[C@H](N)C[C@H](N)[C@H]3O[C@H]3O[C@H](CO)[C@@H](O)[C@H](O)[C@H]3N)[C@@H]2O)[C@H](N)[C@@H](O)[C@@H]1O (stereo partly drawn) | 0.966 |
| COc1cccc2c1CCC1=CC(=O)CC[C@@]12C | 0.915 |
| CC(C)(C)NCC(O)COc1cccc2c1CCCC2=O (stereo not drawn) | 0.95 |
| CC1=CC(=O)C(C(C)C)=CC1=O | 0.777 |
